# Prompt Human NHE3 pIC50 values compiled below
- SYSTEM_NAME: Human NHE3 (Homo sapiens, UniProt P48764)
- Construct: expressed in transfected cells; host or cells: Opossum kidney (OK) cells (ATCC), electroporation
- Sequence (P48764 26-834): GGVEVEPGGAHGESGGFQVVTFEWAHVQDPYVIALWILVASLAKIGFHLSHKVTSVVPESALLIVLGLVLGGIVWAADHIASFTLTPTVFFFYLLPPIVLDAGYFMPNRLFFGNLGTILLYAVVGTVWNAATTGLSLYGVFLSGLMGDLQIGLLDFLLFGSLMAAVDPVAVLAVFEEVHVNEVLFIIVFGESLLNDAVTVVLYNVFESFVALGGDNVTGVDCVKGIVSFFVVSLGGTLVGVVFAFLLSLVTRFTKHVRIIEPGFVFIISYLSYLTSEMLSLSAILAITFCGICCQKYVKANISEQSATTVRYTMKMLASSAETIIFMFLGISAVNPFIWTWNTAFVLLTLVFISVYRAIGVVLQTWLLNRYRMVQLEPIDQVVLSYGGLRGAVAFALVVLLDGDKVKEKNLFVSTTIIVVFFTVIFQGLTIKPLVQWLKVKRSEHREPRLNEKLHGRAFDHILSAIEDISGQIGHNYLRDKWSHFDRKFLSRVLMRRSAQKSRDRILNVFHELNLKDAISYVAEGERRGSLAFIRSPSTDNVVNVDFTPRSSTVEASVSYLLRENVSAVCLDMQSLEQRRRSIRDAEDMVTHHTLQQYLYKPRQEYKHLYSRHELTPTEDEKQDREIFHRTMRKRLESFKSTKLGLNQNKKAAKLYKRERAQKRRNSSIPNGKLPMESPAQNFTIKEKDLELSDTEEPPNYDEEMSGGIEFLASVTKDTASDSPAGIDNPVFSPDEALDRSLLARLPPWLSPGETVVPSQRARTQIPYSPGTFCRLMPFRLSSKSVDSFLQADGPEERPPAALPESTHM
- METHOD: Cell-based NHE3 activity under prompt conditions (OK cells, BCECF pH recovery), human NHE3
- REPORTED_CONDITIONS: prompt conditions
Answer with a bare number; do not write a unit.

O=C(O)CN(CCN(CC(=O)O)CC(=O)NCCOCCOCCOCCNS(=O)(=O)c1ccc(OC2c3ccccc3CC2N2CCCCC2)cc1)CC(=O)NCCOCCOCCOCCNS(=O)(=O)c1ccc(OC2c3ccccc3CC2N2CCCCC2)cc1 (stereo not shown) : 7.40
CN1Cc2c(Cl)cc(Cl)cc2[C@H](c2cccc(S(=O)(=O)NCCOCCOCCNC(=O)CN(CC(=O)NCCOCCOCCNS(=O)(=O)c3cccc([C@@H]4CN(C)Cc5c(Cl)cc(Cl)cc54)c3)CC(=O)NCCOCCOCCNS(=O)(=O)c3cccc([C@@H]4CN(C)Cc5c(Cl)cc(Cl)cc54)c3)c2)C1 : 6.80
CN1Cc2c(Cl)cc(Cl)cc2[C@H](c2cccc(S(=O)(=O)NCCOCCOCCNC(=O)NCCCN(CCCNC(=O)NCCOCCOCCNS(=O)(=O)c3cccc([C@@H]4CN(C)Cc5c(Cl)cc(Cl)cc54)c3)CCCNC(=O)NCCOCCOCCNS(=O)(=O)c3cccc([C@@H]4CN(C)Cc5c(Cl)cc(Cl)cc54)c3)c2)C1 : 7.35
CN1Cc2c(Cl)cc(Cl)cc2[C@H](c2cccc(S(=O)(=O)NCCOCCOCCOCCNC(=O)[C@@H](O)[C@H](O)C(=O)NCCOCCOCCOCCNS(=O)(=O)c3cccc([C@@H]4CN(C)Cc5c(Cl)cc(Cl)cc54)c3)c2)C1 : 8.30
N=C(N)Nc1nc(-c2ccc(OCCOCCOCCOCCNC(=O)NCCOCCOCCNC(=O)NCCCCNC(=O)NCCOCCOCCNC(=O)NCCOCCOCCOCCOc3ccc(-c4nc(NC(=N)N)nc5ccc(Cl)cc45)cc3)cc2)c2cc(Cl)ccc2n1 : 8.00

The record that follows has no Prompt Human NHE3 pIC50 shown yet.
Which Prompt Human NHE3 pIC50 is reported for this molecule? `CN1Cc2c(Cl)cc(Cl)cc2[C@H](c2cccc(S(=O)(=O)N(CCO)CCOCCOCCNC(=O)NCCCN(CCCNC(=O)NCCOCCOCCN(CCO)S(=O)(=O)c3cccc([C@@H]4CN(C)Cc5c(Cl)cc(Cl)cc54)c3)CCCNC(=O)NCCOCCOCCN(CCO)S(=O)(=O)c3cccc([C@@H]4CN(C)Cc5c(Cl)cc(Cl)cc54)c3)c2)C1` 8.35
